# tested on: T1, human myostatin (human, UniProt O14793 267-375, biotinylated in selections and radioactive assays (site not stated))
# T1 construct: Phage ELISA used both unbiotinylated and biotinylated myostatin; also called biotinylated human myostatin; myostatin-biotin
# T1 sequence (looked up): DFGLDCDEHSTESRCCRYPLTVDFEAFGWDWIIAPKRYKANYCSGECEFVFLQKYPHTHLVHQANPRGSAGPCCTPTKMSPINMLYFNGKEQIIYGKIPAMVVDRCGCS
# procedure summary: radioactive equilibrium binding assay
# Procedure: Affinities of selected F13β2 binders to biotinylated myostatin were determined in radioactive equilibrium binding assay (FIGS. 11A and 11B; Table 3). ³⁵S-labeled binder proteins from selection pools and single clones were produced in vitro in a rabbit reticulocyte lysate translation kit (Ambion) and purified on M2-agarose (Sigma). […] The beads were washed five times with 100 μl buffer B, and the amount of ³⁵S-methionine remained on the beads was measured by scintillation counting. […]
# key: entry, value: Kd
observable: Kd (nM)

binder	result units	reported result
39885-A1 (designed binder, group M1-A; also called M1-1 (clone ID)) MTIPEIIIKVRGTQVVGSDMTVIVEFTNPLKETLRNVWVHLDGPGVTRPMKKMFPAIPMNHKVQWEEVVRPWVSGHRKLIASMPQLFHIHVYGELDVQIQRRDYKDDDDK	nM	21.8
45927-E5 (designed binder, group M3-Aext) MTIPEIIIKVRGTQVVGSDMTVIVEFTNPSNYRPCILRNVWVHLDGPGVTRPMKKMFKMIVYHSTVQWEEVVRPWVSGHRKLIASMSKFELSGTSSRGRVYGELDVQIQRRDYKDDDDK	nM	64.1
39633-G6 (designed binder, group M3-A50; FG loop printed -TLRPW (one residue deleted), no scaffold mutation printed; also called M18 (clone ID)) MTIPEIIIKVRGTQVVGSDMTVIVEFTNPFKETLRSVWVHLDGPGVTRPMKKMFREIPPKTTVQWEEVVRPWVSGHRKLIASMTLRPWHVYGELDVQIQRRDYKDDDDK	nM	19.7
39908-D2 (designed binder, group M3-A50; ΔS82, M83R; also called M29 (clone ID)) MTIPEIIIKVRGTQVVGSDMTVIVEFTNPFKETLRSVWVHLDGPGVTRPMKKMFREIPPKTTVQWEEVVRPWVSGHRKLIARCSLSPWHVYGELDVQIQRRDYKDDDDK	nM	23.3
